Each recorded value in this set is attributed to ChEMBL document CHEMBL3779897.

# SYSTEM_UNDER_TEST: Phosphatidylinositol 4,5-bisphosphate 3-kinase catalytic subunit beta isoform (Homo sapiens)
# Sequence (P42338 whole entry, canonical isoform): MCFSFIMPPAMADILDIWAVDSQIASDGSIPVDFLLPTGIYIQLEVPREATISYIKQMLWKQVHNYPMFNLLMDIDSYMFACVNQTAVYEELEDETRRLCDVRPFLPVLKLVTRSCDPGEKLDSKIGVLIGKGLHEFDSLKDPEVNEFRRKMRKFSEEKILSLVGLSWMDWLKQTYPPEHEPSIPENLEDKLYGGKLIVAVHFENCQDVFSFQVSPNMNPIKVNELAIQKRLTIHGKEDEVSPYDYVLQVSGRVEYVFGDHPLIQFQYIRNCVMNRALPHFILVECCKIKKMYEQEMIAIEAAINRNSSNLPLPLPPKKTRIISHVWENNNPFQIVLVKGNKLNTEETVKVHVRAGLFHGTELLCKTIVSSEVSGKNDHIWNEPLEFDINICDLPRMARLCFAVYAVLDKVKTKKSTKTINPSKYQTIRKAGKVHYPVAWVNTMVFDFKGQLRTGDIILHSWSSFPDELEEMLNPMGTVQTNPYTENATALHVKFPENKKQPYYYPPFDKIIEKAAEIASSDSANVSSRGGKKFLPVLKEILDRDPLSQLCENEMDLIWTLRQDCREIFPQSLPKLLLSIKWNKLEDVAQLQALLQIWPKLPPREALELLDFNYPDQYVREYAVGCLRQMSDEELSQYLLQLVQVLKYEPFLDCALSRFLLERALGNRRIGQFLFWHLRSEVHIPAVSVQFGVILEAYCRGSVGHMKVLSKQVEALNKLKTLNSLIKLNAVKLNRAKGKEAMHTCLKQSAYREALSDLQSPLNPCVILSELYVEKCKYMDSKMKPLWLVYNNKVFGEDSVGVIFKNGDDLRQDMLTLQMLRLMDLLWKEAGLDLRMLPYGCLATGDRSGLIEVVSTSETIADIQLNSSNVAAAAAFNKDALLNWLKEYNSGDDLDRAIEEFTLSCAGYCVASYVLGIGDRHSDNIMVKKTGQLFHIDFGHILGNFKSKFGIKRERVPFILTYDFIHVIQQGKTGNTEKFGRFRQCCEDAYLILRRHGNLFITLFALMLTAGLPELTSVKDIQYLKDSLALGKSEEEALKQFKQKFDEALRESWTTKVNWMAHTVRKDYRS
# ASSAY_EXPLANATION: Inhibition of PI3Kbeta (unknown origin) after 1 hr by ADP-Glo luminescent assay
PROPERTY: IC50

// IC50 lookup, compound = "CC(=O)Nc1cnc2ccc(-c3cnc4ccccc4c3)cc2c1Nc1ccc(N2CCN(C(C)=O)CC2)c(C(F)(F)F)c1" , result: > 5 µM

----------
Listing: pIC50 of selected molecules
# ASSAY_EXPLANATION: cells
# CONDITION_PARAMETERS: Homo sapiens, PC-3, 72 h
pIC50: −log10 of the molar value.

Worked cases, answers included:
>  <SMI>
O=C(Nc1cnc2ccc(-c3cnc4ccccc4c3)cc2c1Nc1ccc(N2CCNCC2)c(C(F)(F)F)c1)C(F)(F)F

>  <pIC50>
5.42

$$$$
>  <SMI>
CC(=O)Nc1cnc2ccc(-c3cnc4ccccc4c3)cc2c1Nc1ccc(C(F)(F)F)cc1

>  <pIC50>
< 5.00

$$$$
>  <SMI>
COc1cc(Nc2c(NC(C)=O)cnc3ccc(-c4cnc5ccccc5c4)cc23)cc(OC)c1

>  <pIC50>
< 5.00

$$$$
>  <SMI>
CC(C)(C#N)c1ccc(Nc2c(N(S(C)(=O)=O)S(C)(=O)=O)cnc3ccc(-c4cnc5ccccc5c4)cc23)cc1

>  <pIC50>
< 5.00

$$$$
>  <SMI>
CC(=O)Nc1cnc2ccc(-c3cnc4ccccc4c3)cc2c1Nc1ccc(N2CCNCC2)c(C(F)(F)F)c1.Cl

>  <pIC50>
6.30

$$$$

Entry under test: "CC(C)(C)C(=O)Nc1cnc2ccc(-c3cnc4ccccc4c3)cc2c1Nc1ccc(C(C)(C)C#N)cc1" . Its pIC50 was < 5.00

Value of measured pIC50 for the entry "CC(C)(C#N)c1ccc(Nc2c(NC(=O)C(F)(F)F)cnc3ccc(-c4cnc5ccccc5c4)cc23)cc1" : < 5.00
